Provenance of the data: patent US5663205A

Assay: Test Example 7 (1): acute toxicity test in mice
Settings: mouse, in vivo, iv, intravenous (tail vein), male mice; read-out: 50% lethal dose (LD50)
endpointName: LD50 (mg/kg)
Numbers only, in mg/kg.

Form field LD50, entry COc1ccccc1OCCNCC(O)c1ccc(C)c(S(N)(=O)=O)c1 (stereo not shown) : 104

* * *

Assay: Test Example 7 (1): acute toxicity test in mice
Settings: mouse, in vivo, iv, intravenous (tail vein), female mice; read-out: 50% lethal dose (LD50)
endpointName: LD50 (mg/kg)
Answers are plain numbers, in mg/kg.

Form field LD50, entry COc1ccccc1OCCNCC(O)c1ccc(C)c(S(N)(=O)=O)c1 (stereo not shown) [Amosulalol] : 134
